Source of measurements: patent US7790740B2

assayed.system: UniProt:P51681
Sequence (P51681 whole entry): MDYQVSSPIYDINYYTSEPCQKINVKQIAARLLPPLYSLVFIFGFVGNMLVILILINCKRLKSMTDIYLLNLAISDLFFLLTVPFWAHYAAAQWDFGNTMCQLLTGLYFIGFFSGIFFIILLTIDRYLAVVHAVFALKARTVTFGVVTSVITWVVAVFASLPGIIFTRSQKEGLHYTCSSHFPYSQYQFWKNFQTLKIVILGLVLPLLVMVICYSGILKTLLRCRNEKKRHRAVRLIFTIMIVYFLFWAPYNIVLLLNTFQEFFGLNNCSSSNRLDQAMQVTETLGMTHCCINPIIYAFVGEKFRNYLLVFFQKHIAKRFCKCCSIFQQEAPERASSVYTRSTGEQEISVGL
measurement.description: assay for CCR5 binding according to Combadiere et al
condition: IC50 CCR5 binding (MIP-1α), ligand MIP-1α
measured.endpoint: IC50

Q) Note IC50 for the compound shown: CCC(=O)N1CCc2c(nc(C)n2[C@H]2C[C@H]3CC[C@@H](C2)N3CC[C@H](NC(C)=O)c2cccc(F)c2)C1 [Example 5]
A) 2.7 nM
